target: Sialic acid-binding Ig-like lectin 9 (Homo sapiens) (UniProt Q9Y336); test: Hs-Siglec9 ALPHAscreen SOP 20170721; set-up: scale not given: direction of the effect not stated beside the values; settings: 10 µM
Sequence (Q9Y336 whole entry): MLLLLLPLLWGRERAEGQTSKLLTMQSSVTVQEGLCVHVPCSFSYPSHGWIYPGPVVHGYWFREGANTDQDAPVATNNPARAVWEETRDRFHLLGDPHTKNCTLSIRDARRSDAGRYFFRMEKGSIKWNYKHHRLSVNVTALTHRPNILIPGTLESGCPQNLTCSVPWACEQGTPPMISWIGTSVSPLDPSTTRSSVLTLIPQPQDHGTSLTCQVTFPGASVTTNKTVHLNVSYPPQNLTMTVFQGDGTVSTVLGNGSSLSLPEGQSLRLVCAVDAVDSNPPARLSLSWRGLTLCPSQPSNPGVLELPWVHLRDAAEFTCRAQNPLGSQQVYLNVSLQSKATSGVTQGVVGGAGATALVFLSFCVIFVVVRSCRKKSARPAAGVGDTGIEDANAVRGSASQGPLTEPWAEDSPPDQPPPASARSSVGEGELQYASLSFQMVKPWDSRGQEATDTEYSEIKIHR
Consider the following compounds; for each one, report its Percent Effect.
Give bare numbers, in %.

{"COMPOUND": "CCC(C)NC(=O)Nc1ccc(CN2CCOC2=O)cc1 (configuration not stated)", "EXPERIMENTAL SYSTEM": "Sialic acid-binding Ig-like lectin 9 (Homo sapiens) (UniProt Q9Y336)", "REPORTED PROPERTY": "Percent Effect", "READOUT UNITS": "%", "RESULT": -0.797}
{"COMPOUND": "CN(C)C(=O)C1CN(Cc2cscn2)CCN(S(C)(=O)=O)C1 (configuration not stated)", "EXPERIMENTAL SYSTEM": "Sialic acid-binding Ig-like lectin 9 (Homo sapiens) (UniProt Q9Y336)", "REPORTED PROPERTY": "Percent Effect", "READOUT UNITS": "%", "RESULT": 3.06}
{"COMPOUND": "CN(C)C(=O)C1(CCCc2ccncc2)CCCN1 (configuration not stated)", "EXPERIMENTAL SYSTEM": "Sialic acid-binding Ig-like lectin 9 (Homo sapiens) (UniProt Q9Y336)", "REPORTED PROPERTY": "Percent Effect", "READOUT UNITS": "%", "RESULT": -4.7}

For every item below, please supply its Percent Effect.
1. Cn1cc(C2CC(=O)NC23CCN(c2ncc(F)cn2)CC3)cn1 (configuration not stated)
2. Cc1nc(C)n(CC2CCCN2CCCc2ccccc2)n1 (configuration not stated)
3. O=C(NCC1CC1)Nc1cnc2cc(Cl)ccc2c1O

[out]
5.28
3.43
-10.8
